Items are presented alongside their recorded MIC.
Test system: Candida albicans
Experiment: Antimicrobial activity against Candida albicans NCIM 3102 assessed as growth inhibition by agar streak dilution method
Format: functional
Note: unit µg/mL is implicit; provide only the numeric part.

Here's what some known entries look like.
> print(dat)
                                   compound  reported.result
1  COc1ccc(-c2nc3ccccc3c(=O)n2C(=O)CCC(N)C(=O)O)cc1 (stereo not drawn)               25
2  NC(CCC(=O)n1c(-c2ccc(O)cc2)nc2ccccc2c1=O)C(=O)O (stereo not drawn)               40

The observed MIC for Nc1ccc(-c2nc3ccccc3c(=O)n2C(=O)CCC(N)C(=O)O)cc1 (stereo not drawn) when tested with Candida albicans stands at 50

---

System: Aspergillus flavus
Assay: Antimicrobial activity against Aspergillus flavus NCIM 524 assessed as diameter of growth inhibition zone at 100 ug/ml after 48 hr by paper disk diffusion method
Type: functional
Settings: NCIM 524, 48 h, read-out: DIZ
QUANTITY_KIND: zone of inhibition at 100 µg/mL (mm)
Note: unit mm is implicit; provide only the numeric part.

Here's what some known entries look like.
> print(dat)
                                   molecule  reported.result
1  NC(CCC(=O)n1c(-c2cc(F)ccc2F)nc2ccccc2c1=O)C(=O)O (configuration not stated)             10.9
2  NC(CCC(=O)n1c(-c2cc(F)cc(F)c2)nc2ccccc2c1=O)C(=O)O (configuration not stated)             10.4
3  NC(CCC(=O)n1c(-c2ccc(F)c(F)c2F)nc2ccccc2c1=O)C(=O)O (configuration not stated)             14.4
4  NC(CCC(=O)n1c(-c2ccc(Cl)cc2)nc2ccccc2c1=O)C(=O)O (configuration not stated)             12.1

The recorded zone of inhibition at 100 µg/mL for entry COc1ccc(-c2nc3ccccc3c(=O)n2C(=O)CCC(N)C(=O)O)cc1 (configuration not stated) equals 14

The recorded zone of inhibition at 100 µg/mL for entry NC(CCC(=O)n1c(OCc2ccccc2Cl)nc2ccccc2c1=O)C(=O)O (configuration not stated) equals 11

The recorded zone of inhibition at 100 µg/mL for entry Nc1ccc(-c2nc3ccccc3c(=O)n2C(=O)CCC(N)C(=O)O)cc1 (configuration not stated) equals 11

The recorded zone of inhibition at 100 µg/mL for entry NC(CCC(=O)n1c(Cc2ccccc2)nc2ccccc2c1=O)C(=O)O (configuration not stated) equals 10.2

The recorded zone of inhibition at 100 µg/mL for entry Cc1ccccc1-c1nc2ccccc2c(=O)n1C(=O)CCC(N)C(=O)O (configuration not stated) equals 15

---

Items are presented alongside their recorded MIC.
Test system: Escherichia coli
Assay: Antimicrobial activity against Escherichia coli NCIM 2574 assessed as growth inhibition by agar streak dilution method
Assay type: functional
Note: unit µg/mL is implicit; provide only the numeric part.

Here's what some known entries look like.
COMPOUND	REPORTED_RESULT
CN[C@@H]1[C@H](O[C@H]2[C@H](O[C@H]3[C@H](O)[C@@H](O)[C@H](N=C(N)N)[C@@H](O)[C@@H]3N=C(N)N)O[C@@H](C)[C@]2(O)C=O)O[C@@H](CO)[C@H](O)[C@H]1O	5
NC(CCC(=O)n1c(-c2ccc(O)cc2)nc2ccccc2c1=O)C(=O)O (stereo not drawn)	50

Okay, next one:
The recorded MIC for entry Nc1ccc(-c2nc3ccccc3c(=O)n2C(=O)CCC(N)C(=O)O)cc1 (stereo not drawn) equals 50

---

Experiment: Antioxidant activity assessed as inhibition of NO radical production from sodium nitroprusside after 150 min by Griess reagent analysis
Type: functional
Items are presented alongside their recorded IC50.
Note: unit µg/mL is implicit; provide only the numeric part.

Here's what some known entries look like.
> print(dat)
                                   compound  reported.result
1  Cc1ccccc1-c1nc2ccccc2c(=O)n1C(=O)CCC(N)C(=O)O (centres undefined)             29.1
2  COc1ccc(-c2nc3ccccc3c(=O)n2C(=O)CCC(N)C(=O)O)cc1 (centres undefined)             20.1
3  NC(CCC(=O)n1c(Cc2ccccc2)nc2ccccc2c1=O)C(=O)O (centres undefined)             36.2
4  NC(CCC(=O)n1c(-c2ccccc2)nc2ccccc2c1=O)C(=O)O (centres undefined)               36
5  NC(CCC(=O)n1c(-c2ccc(Cl)cc2)nc2ccccc2c1=O)C(=O)O (centres undefined)             41.8

The recorded IC50 for entry Nc1ccc(-c2nc3ccccc3c(=O)n2C(=O)CCC(N)C(=O)O)cc1 (centres undefined) equals 19.4

The recorded IC50 for entry NC(CCC(=O)n1c(-c2ccc([N+](=O)[O-])cc2)nc2ccccc2c1=O)C(=O)O (centres undefined) equals 49

The recorded IC50 for entry NC(CCC(=O)n1c(OCc2ccccc2Cl)nc2ccccc2c1=O)C(=O)O (centres undefined) equals 38.7

The recorded IC50 for entry NC(CCC(=O)n1c(-c2ccc(O)cc2)nc2ccccc2c1=O)C(=O)O (centres undefined) equals 15.2

---

System: Aspergillus flavus
Assay: Antimicrobial activity against Aspergillus flavus NCIM 524 assessed as growth inhibition by agar streak dilution method
Format: functional
QUANTITY_KIND: log10 of MIC (log10 of the value in µg/mL)
Parameter value (number): base-10 log of MIC in µg/mL.

Here's what some known entries look like.
> print(dat)
                                   molecule  quantity.kind  reported.result
1  NC(CCC(=O)n1c(-c2cc(F)cc(F)c2)nc2ccccc2c1=O)C(=O)O (stereo not drawn)   log10 of MIC             1.40
2  NC(CCC(=O)n1c(-c2ccc(F)c(F)c2F)nc2ccccc2c1=O)C(=O)O (stereo not drawn)   log10 of MIC             1.18

The recorded log10 of MIC for entry NC(CCC(=O)n1c(-c2ccc(O)cc2)nc2ccccc2c1=O)C(=O)O (stereo not drawn) equals 1.60

The recorded log10 of MIC for entry "OC(Cn1cncn1)(Cn1cncn1)c1ccc(F)cc1F" equals 0.70

The recorded log10 of MIC for entry NC(CCC(=O)n1c(Cc2ccccc2)nc2ccccc2c1=O)C(=O)O (stereo not drawn) equals 1.88

The recorded log10 of MIC for entry COc1ccc(-c2nc3ccccc3c(=O)n2C(=O)CCC(N)C(=O)O)cc1 (stereo not drawn) equals 1.18

The recorded log10 of MIC for entry NC(CCC(=O)n1c(-c2ccccc2)nc2ccccc2c1=O)C(=O)O (stereo not drawn) equals 1.40

The recorded log10 of MIC for entry NC(CCC(=O)n1c(-c2cc(F)ccc2F)nc2ccccc2c1=O)C(=O)O (stereo not drawn) equals 1.18

The recorded log10 of MIC for entry NC(CCC(=O)n1c(-c2ccc([N+](=O)[O-])cc2)nc2ccccc2c1=O)C(=O)O (stereo not drawn) equals 1.10

The recorded log10 of MIC for entry Cc1ccccc1-c1nc2ccccc2c(=O)n1C(=O)CCC(N)C(=O)O (stereo not drawn) equals 1.40

---

Test system: Candida albicans
Test: Antimicrobial activity against Candida albicans NCIM 3102 assessed as diameter of growth inhibition zone at 100 ug/ml after 48 hr by paper disk diffusion method
Assay type: functional
Conditions: NCIM 3102, 48 h, read-out: DIZ
Items are presented alongside their recorded zone of inhibition at 100 µg/mL.
Note: unit mm is implicit; provide only the numeric part.

> print(dat)
                                   compound                    quantity.kind  measurement.units  reported.result
1  NC(CCC(=O)n1c(OCc2ccccc2Cl)nc2ccccc2c1=O)C(=O)O (configuration not stated)  zone of inhibition at 100 µg/mL                 mm             13.7
2  NC(CCC(=O)n1c(-c2ccc(Cl)cc2)nc2ccccc2c1=O)C(=O)O (configuration not stated)  zone of inhibition at 100 µg/mL                 mm             13.6
3  NC(CCC(=O)n1c(-c2ccccc2)nc2ccccc2c1=O)C(=O)O (configuration not stated)  zone of inhibition at 100 µg/mL                 mm               14
4  NC(CCC(=O)n1c(-c2ccc([N+](=O)[O-])cc2)nc2ccccc2c1=O)C(=O)O (configuration not stated)  zone of inhibition at 100 µg/mL                 mm             14.1
5  NC(CCC(=O)n1c(-c2cc(F)ccc2F)nc2ccccc2c1=O)C(=O)O (configuration not stated)  zone of inhibition at 100 µg/mL                 mm             11.4
6  Nc1ccc(-c2nc3ccccc3c(=O)n2C(=O)CCC(N)C(=O)O)cc1 (configuration not stated)  zone of inhibition at 100 µg/mL                 mm             12.5

The recorded zone of inhibition at 100 µg/mL for entry NC(CCC(=O)n1c(-c2ccc(O)cc2)nc2ccccc2c1=O)C(=O)O (configuration not stated) equals 9
